- STUDY TARGET: Platelet-activating factor acetylhydrolase (Homo sapiens)
- PROTOCOL SUMMARY: Inhibitory activity against recombinant human Lp-PLA2 (Lp-PLA2).
MEASURED PARAMETER: IC50
Param answer (str): number followed by unit.

Known results for compounds:
CN(Cc1ccc(-c2ccccc2)cc1)C(=O)Cn1cc(Cc2cncnc2)c(=O)nc1SCc1ccc(F)cc1 :: 8 nM
Cn1cc(Cc2cn(CCCC(=O)NCc3ccc(-c4ccc(F)cc4)cc3)c(SCc3ccc(F)cc3)nc2=O)cn1 :: 4 nM
COc1ncc(Cc2cn(CCCC(=O)N(C)Cc3ccc(-c4ccc(Cl)cc4)cc3)c(SCc3ccc(F)cc3)nc2=O)cn1 :: 5 nM
COc1ncc(Cc2cn(CC(=O)N(C)Cc3ccc(-c4ccc(C(F)(F)F)cc4)cc3)c(SCc3ccc(F)cc3)nc2=O)cn1 :: 0.2 nM
CN(Cc1ccc(-c2ccc(Cl)cc2)cc1)C(=O)Cn1cc(Cc2cnc(N3CCOCC3)nc2)c(=O)nc1SCc1ccc(F)cc1 :: 1 nM

Challenge: May I ask what IC50 has been recorded for Cn1cc(Cc2cn(CCCC(=O)NCc3ccc(-c4ccccc4)cc3)c(SCc3ccc(F)cc3)nc2=O)cn1 ?
Response given: 5 nM

Challenge: Entry CN(Cc1ccc(-c2ccc(Cl)cc2)cc1)C(=O)Cn1cc(Cc2cnc(N(C)C)nc2)c(=O)nc1SCc1ccc(F)cc1 has what IC50?
Response given: 0.8 nM

Challenge: // query IC50 value for entry CN(Cc1ccc(-c2ccc(F)cc2)cc1)C(=O)CCCn1cc(Cc2cnn(C)c2)c(=O)nc1SCc1ccc(F)cc1
Response given: 8 nM

---

- STUDY TARGET: Platelet-activating factor acetylhydrolase (Homo sapiens)
- Sequence (Q13093 whole entry): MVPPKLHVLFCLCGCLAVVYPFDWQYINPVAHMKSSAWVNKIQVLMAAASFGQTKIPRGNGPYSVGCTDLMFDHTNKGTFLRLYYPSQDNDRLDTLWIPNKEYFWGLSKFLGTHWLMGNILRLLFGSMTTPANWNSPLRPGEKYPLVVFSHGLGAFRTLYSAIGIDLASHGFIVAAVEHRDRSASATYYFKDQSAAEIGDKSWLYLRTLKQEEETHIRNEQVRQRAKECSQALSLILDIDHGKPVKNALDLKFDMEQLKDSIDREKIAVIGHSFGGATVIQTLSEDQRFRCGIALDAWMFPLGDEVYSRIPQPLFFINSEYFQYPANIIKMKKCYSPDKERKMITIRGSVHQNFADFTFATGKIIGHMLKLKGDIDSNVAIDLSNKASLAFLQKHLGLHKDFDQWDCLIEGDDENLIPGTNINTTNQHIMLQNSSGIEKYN
- PROTOCOL SUMMARY: Inhibitory activity against recombinant human Lp-PLA2 (Lp-PLA2).
// values below are reported pIC50
Reminder that pIC50 is minus the log10 of a molar concentration.

Example entries begin here.
COc1ncc(Cc2cn(CCCC(=O)NCc3ccc(-c4ccc(Cl)cc4)cc3)c(SCc3ccc(F)cc3)nc2=O)cn1 :: 8.40
O=C(Cn1cc(Cc2cncnc2)c(=O)nc1SCc1ccc(F)cc1)NCc1ccc(-c2ccccc2)cc1 :: 8.40
COc1ncc(Cc2cn(CC(=O)NCc3ccc(-c4ccc(Cl)cc4)cc3)c(SCc3ccc(F)cc3)nc2=O)cn1 :: 9.30
CN(Cc1ccc(-c2ccc(Cl)cc2)cc1)C(=O)Cn1cc(Cc2cnc(C(F)(F)F)nc2)c(=O)nc1SCc1ccc(F)cc1 :: 8.30

Please find the next molecule below.
Challenge: Would you kindly share the measured pIC50 for COc1ncc(Cc2cn(CCCC(=O)NCc3ccc(-c4ccccc4)cc3)c(SCc3ccc(F)cc3)nc2=O)cn1 ?
Response given: 8.40

---

# pIC50 per record follows
- STUDY TARGET: Platelet-activating factor acetylhydrolase (Homo sapiens, UniProt Q13093)
- PROTOCOL SUMMARY: Inhibitory activity against recombinant human Lp-PLA2 (Lp-PLA2).
// pIC50 here means minus log10 of the molar concentration (mol/L)

These recorded examples may help you get a feel for the data.
CCn1cc(Cc2cn(CC(=O)N(C)Cc3ccc(-c4ccc(Cl)cc4)cc3)c(SCc3ccc(F)cc3)nc2=O)cnc1=O :: 9.30
O=C(Cn1cc(Cc2cncnc2)c(=O)nc1SCc1ccc(F)cc1)NCc1cccc(-c2ccccc2)c1 :: 7.62
COc1ncc(Cc2cn(CC(=O)N(C)Cc3ccc(-c4ccc(F)cc4)cc3)c(SCc3ccc(F)cc3)nc2=O)cn1 :: 9.22

Challenge: Please give the measured pIC50 for this molecule: O=C(Cn1cc(Cc2cncnc2)c(=O)nc1SCc1ccc(F)cc1)NCc1ccccc1-c1ccccc1
Response given: 6.71
